The measured values listed here are drawn from patent US20260158031A1.

biological target: TYK2 (Homo sapiens, UniProt P29597)
Sequence (P29597 whole entry, species assumed): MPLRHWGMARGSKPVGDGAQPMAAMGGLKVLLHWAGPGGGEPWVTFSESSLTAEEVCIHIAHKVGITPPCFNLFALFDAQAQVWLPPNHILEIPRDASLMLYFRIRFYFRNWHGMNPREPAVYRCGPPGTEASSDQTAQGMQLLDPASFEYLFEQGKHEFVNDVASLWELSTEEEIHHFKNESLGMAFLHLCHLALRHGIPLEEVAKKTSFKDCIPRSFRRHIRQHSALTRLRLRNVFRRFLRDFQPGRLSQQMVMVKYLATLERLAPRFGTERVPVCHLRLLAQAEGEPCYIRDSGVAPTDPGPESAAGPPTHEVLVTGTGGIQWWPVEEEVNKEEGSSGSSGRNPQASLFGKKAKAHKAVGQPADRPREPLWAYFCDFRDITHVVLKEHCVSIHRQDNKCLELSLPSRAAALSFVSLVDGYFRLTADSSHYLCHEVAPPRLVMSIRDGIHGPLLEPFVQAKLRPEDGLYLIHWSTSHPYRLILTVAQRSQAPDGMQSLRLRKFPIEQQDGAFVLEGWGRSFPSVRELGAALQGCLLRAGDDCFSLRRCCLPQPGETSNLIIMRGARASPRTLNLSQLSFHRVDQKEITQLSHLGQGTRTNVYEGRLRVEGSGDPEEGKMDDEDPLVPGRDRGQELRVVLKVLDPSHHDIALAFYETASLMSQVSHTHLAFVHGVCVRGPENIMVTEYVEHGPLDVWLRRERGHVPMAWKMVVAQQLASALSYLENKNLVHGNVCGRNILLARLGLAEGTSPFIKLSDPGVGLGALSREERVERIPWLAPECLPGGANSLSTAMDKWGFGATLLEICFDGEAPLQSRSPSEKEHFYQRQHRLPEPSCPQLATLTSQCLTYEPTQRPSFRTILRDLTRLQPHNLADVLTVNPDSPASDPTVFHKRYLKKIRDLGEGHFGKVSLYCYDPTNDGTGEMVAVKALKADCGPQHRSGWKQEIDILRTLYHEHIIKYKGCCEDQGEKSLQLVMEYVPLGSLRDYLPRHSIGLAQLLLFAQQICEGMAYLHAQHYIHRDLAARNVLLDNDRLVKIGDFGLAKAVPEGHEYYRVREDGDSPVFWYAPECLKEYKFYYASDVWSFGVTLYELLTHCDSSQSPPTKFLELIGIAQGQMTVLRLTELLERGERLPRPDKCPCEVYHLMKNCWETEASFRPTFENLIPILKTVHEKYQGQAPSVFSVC
property name: IC50

[in] What does the data say about its IC50? Entry: C[C@@H]1Cn2ncc(-c3ccnc4[nH]ccc34)c2CN1C(=O)/C=C/CN(C)C
[out] > 10 µM

* * *

I'd appreciate it if you could supply pIC50 values for the items below.
Target: JAK3 kinase (Homo sapiens)
Sequence (P52333 1-1124): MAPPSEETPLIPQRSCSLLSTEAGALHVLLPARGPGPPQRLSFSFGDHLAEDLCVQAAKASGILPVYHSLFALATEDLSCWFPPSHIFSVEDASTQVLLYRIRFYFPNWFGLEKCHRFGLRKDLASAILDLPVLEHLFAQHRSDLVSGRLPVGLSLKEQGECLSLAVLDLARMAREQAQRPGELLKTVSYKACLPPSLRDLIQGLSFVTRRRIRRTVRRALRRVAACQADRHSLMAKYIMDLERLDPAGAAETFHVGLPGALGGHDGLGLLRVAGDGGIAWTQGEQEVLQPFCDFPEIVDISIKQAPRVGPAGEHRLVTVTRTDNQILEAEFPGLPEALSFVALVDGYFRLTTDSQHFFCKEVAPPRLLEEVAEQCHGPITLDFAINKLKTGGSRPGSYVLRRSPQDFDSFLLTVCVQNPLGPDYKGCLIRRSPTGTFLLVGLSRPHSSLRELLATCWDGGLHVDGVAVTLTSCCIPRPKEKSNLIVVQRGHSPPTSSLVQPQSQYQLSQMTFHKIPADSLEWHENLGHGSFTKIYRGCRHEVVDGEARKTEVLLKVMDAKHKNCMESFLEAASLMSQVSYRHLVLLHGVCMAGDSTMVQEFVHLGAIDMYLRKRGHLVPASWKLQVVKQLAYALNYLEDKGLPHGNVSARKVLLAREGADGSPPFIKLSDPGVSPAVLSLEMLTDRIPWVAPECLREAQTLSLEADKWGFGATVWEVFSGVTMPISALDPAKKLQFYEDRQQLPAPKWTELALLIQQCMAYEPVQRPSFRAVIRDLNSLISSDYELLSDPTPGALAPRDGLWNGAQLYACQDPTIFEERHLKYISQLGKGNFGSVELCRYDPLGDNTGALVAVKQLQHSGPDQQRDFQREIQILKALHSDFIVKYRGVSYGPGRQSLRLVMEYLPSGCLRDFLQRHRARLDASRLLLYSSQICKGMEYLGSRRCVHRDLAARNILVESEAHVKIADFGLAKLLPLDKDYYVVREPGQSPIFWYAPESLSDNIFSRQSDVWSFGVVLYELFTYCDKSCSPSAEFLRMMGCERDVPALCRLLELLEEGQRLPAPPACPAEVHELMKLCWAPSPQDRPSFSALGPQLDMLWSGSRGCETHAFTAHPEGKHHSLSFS
Assay: Mobility shift assay, in vitro JAK3 kinase inhibitory activity
Type: biochemical
Conditions: mobility shift assay, Example 136
Keep in mind that pIC50 stands for -log10 of concentration in molar terms.

[in] What does the data say about its pIC50? Entry: C=CC(=O)N1Cc2[nH]nc(-c3ccnc4[nH]ccc34)c2C1
[out] 9.55

[in] What does the data say about its pIC50? Entry: C=CC(=O)N1CCCn2ncc(-c3ccnc4[nH]ccc34)c2C1
[out] 8.85

[in] What does the data say about its pIC50? Entry: [2H]C([2H])([2H])n1nc(-c2ccnc3[nH]ccc23)c2c1CCN(C(=O)C=C)C2
[out] 9.54

[in] What does the data say about its pIC50? Entry: C=CC(=O)N1CCn2ncc(-c3ccnc4[nH]ccc34)c2C1
[out] 9.85

[in] What does the data say about its pIC50? Entry: C=CC(=O)N1Cc2c(-c3ncnc4[nH]ccc34)cnn2C[C@@H]1C
[out] 9.82

[in] What does the data say about its pIC50? Entry: CN(C)C/C=C/C(=O)N1Cc2c(-c3ccnc4[nH]ccc34)cnn2[C@@H]2CCC[C@@H]21
[out] 8.35

[in] What does the data say about its pIC50? Entry: C=C(F)C(=O)N1CCc2c(c(-c3ccnc4[nH]ccc34)nn2C(C)=O)C1
[out] 8.28

[in] What does the data say about its pIC50? Entry: C[C@@H]1Cn2ncc(-c3ccnc4[nH]ccc34)c2CN1C(=O)CCl
[out] 8.09

[in] What does the data say about its pIC50? Entry: C[C@H]1Cn2ncc(-c3ccnc4[nH]ccc34)c2CN1C(=O)/C=C/CN1CCCCC1
[out] 9.24

[in] What does the data say about its pIC50? Entry: C=CC(=O)N1Cc2c(-c3ccnc4[nH]ccc34)cnn2[C@@H]2CCCC[C@@H]21
[out] 9.96

[in] What does the data say about its pIC50? Entry: C=CC(=O)N1Cc2c(-c3ncnc4[nH]ccc34)cnn2C[C@H]1C
[out] 9.32

[in] What does the data say about its pIC50? Entry: C=CC(=O)N1CCc2c(c(-c3ccnc4[nH]ccc34)nn2C(C)=O)C1
[out] 9.46

[in] What does the data say about its pIC50? Entry: C=CC(=O)N1Cc2c(-c3ncnc4[nH]ccc34)cnn2C[C@@H]1C(C)C
[out] 9.92

[in] What does the data say about its pIC50? Entry: C[C@H]1Cn2ncc(-c3ccnc4[nH]ccc34)c2CN1C(=O)/C=C/CN(C)C
[out] 9.06

[in] What does the data say about its pIC50? Entry: C=CC(=O)N1Cc2c(-c3ncnc4[nH]ccc34)cnn2C[C@H]1C(C)C
[out] 8.62

[in] What does the data say about its pIC50? Entry: C=C(F)C(=O)N1Cc2c(-c3ccnc4[nH]ccc34)cnn2[C@@H]2CCCC[C@@H]21
[out] 8.38

[in] What does the data say about its pIC50? Entry: C=CC(=O)N1CCc2c(c(-c3ccnc4[nH]ccc34)nn2C(C)C)C1
[out] 8.16

[in] What does the data say about its pIC50? Entry: C=CC(=O)N1Cc2c(-c3ccnc4[nH]cc(C(C)=O)c34)cnn2C[C@@H]1C
[out] 8.85
